Molecular target: T1, human MSLN-R2-his protein (human, UniProt Q13421 391-486)
T1 construct: Region 2 of human mesothelin, made in HEK293E cells, His-tagged; also called human MSLN-R2 protein; hMSLN-R2-his; not shown: His tag
T1 sequence (Q13421 other isoform, or with tags, fused parts or gaps): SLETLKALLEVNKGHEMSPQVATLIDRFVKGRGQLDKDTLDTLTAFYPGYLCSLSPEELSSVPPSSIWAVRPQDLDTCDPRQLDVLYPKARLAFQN
Assay: ELISA on coated MSLN-R2; no antibody (blank)
readoutLabel: OD450

Query: OD450 for S009-F8-31.22 (antibody, human IgG1, kappa, V domains shown) VH: EVQLVESGGDLVKPGGSLKLSCAASGFTFSTYGMSWVRQTPDKRLEWVATISSGGSYTYYPDSLKGRFTISRDNAKNTLYLQMSSLKSEDTAMYYCARHEGYYYGKDYWGQGTTLTVSS VL: DIVLTQSPATLSVTPGDSVSLSCRASHSISNNLHWYQQKSHESPRLLIKYASQSISGIPSKFSGSGSGTDFTLSINSVETEDFGMYFCQQTNSWPLTFGAGTKLELKR ?
Response: 0.05 OD450
